molecular target: full-length hepatitis C viral protein NS3•4A (Hepatitis C virus genotype 1a); construct: hexa-histidine (N); made in house; host or cells: Sf9 insect cells (baculovirus, pVL1392); assay: biochemical; set-up: species or system HCV sub-type strain 1a; conditions: Enzyme Assay 2 (HCV NS3 Peptide Cleavage Assay) activity, apparent Ki class
pKi: −log10 of the molar value.
Metric: pKi

1. CCC[C@H](NC(=O)[C@@H]1C[C@]2(CC(c3cccc(Cl)c3)=NO2)CN1C(=O)[C@@H](NC(=O)CC1CCCCC1)C1(OC)CC1)C(=O)C(=O)NC1CC1: > 7.00
2. CCC[C@H](NC(=O)[C@@H]1CC2(CC(c3cccc(Cl)c3)=NO2)CN1C(=O)[C@H](Cc1ccc(OC)cc1)NC(C)=O)C(=O)C(=O)NC1CC1 (some centres unmarked): 6.30 to 7.00
3. CCC[C@H](NC(=O)[C@@H]1C[C@]2(CC(c3cccc(Cl)c3)=NO2)CN1C(=O)[C@@H](NC(=O)CC1CCCCC1)C(C)(C)C)C(=O)C(=O)Nc1cc(OC)ccc1OC: < 6.30
4. CCC[C@H](NC(=O)[C@@H]1C[C@]2(CC(c3ccsc3)=NO2)CN1C(=O)[C@@H](NC(=O)CC1CCCCC1)C(C)(C)C)C(=O)C(=O)NC1CC1: 6.30 to 7.00
5. CCC[C@H](NC(=O)[C@@H]1C[C@]2(CC(c3ccc(OCC)c(Cl)c3)=NO2)CN1C(=O)[C@@H](NC(=O)CC1CCCCC1)C(C)(C)C)C(=O)C(=O)NC1CC1: > 7.00
